# Test system: Cryptococcus neoformans
# Assay Protocol: Antifungal activity against Cryptococcus neoformans 32609 after 72 hrs by serial dilution method
# Assay type: functional
# Assay Conditions: Cryptococcus neoformans, 32609, 72 h
Below, each of the compounds is paired with its reported MIC80 value.
Quick reminder: number only, in µg/mL, skip the unit.

State its MIC80 for this compound: O=c1n(-c2ccc(Br)cc2)cnn1CCCN1CCN(CC(O)(Cn2cncn2)c2ccc(F)cc2F)CC1 (racemic) 4

Please give measured MIC80 of the following entry: Cc1ccc(C)c(-n2cnn(CCCN3CCN(CC(O)(Cn4cncn4)c4ccc(F)cc4F)CC3)c2=O)c1 (racemic) 8

In one line, give reported MIC80 of the entry Cc1ccc(-n2cnn(CCCN3CCN(CC(O)(Cn4cncn4)c4ccc(F)cc4F)CC3)c2=O)cc1C (racemic) . 4

State its MIC80 for this compound: O=c1n(-c2cccc(Cl)c2)cnn1CCCN1CCN(CC(O)(Cn2cncn2)c2ccc(F)cc2F)CC1 (racemic) 4

Determine from records and report MIC80 for CCOc1ccc(-n2cnn(CCCN3CCN(CC(O)(Cn4cncn4)c4ccc(F)cc4F)CC3)c2=O)cc1 (racemic) 8

Return the recorded MIC80 value; entry: Cc1cccc(-n2cnn(CCCN3CCN(CC(O)(Cn4cncn4)c4ccc(F)cc4F)CC3)c2=O)c1 (racemic) 8

Hello, the source for this data is ChEMBL document CHEMBL1909602, in case you need it.
